subject-of-test: T1, Human CD137 ECD (human)
T1 construct: also called 4-1BB
test-protocol: SPR, vs parent H183/L072
Listed below: fold change of affinity values for each entry.
The reply should be a number in fold, with the unit left off.

Below: 8 binders and their reported fold change of affinity.
[[record]]
binder = "dBBDu183H L100dQ / dBBDu072L (antibody, name in Kabat numbering, V domains shown, as m1, one VH change) VH: QVQLVESGGGLVQPGRSLRLSCAASGFTFSNAWMHWVRQAPGKGLEWVAQIKDKGNAYAAYYAPSVKGRFTISRDDSKNSIYLQMNSLKTEDTAVYYCHYVHYASASTVQPAFGVDAWGQGTTVTVSS VL: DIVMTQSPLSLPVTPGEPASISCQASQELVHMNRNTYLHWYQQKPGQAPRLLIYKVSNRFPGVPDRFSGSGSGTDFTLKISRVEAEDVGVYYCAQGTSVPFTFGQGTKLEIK"
endpoint = "fold change of affinity"
observed_measurement = 0.5

[[record]]
binder = "dBBDu183H A100R / dBBDu072L (antibody, name in Kabat numbering, V domains shown, as m1, one VH change) VH: QVQLVESGGGLVQPGRSLRLSCAASGFTFSNAWMHWVRQAPGKGLEWVAQIKDKGNAYAAYYAPSVKGRFTISRDDSKNSIYLQMNSLKTEDTAVYYCHYVHYASRSTVLPAFGVDAWGQGTTVTVSS VL: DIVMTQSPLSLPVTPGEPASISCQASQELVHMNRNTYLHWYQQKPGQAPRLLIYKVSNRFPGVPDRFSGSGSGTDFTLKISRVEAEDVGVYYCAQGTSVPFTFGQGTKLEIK"
endpoint = "fold change of affinity"
observed_measurement = 0.5

[[record]]
binder = "dBBDu183H V63S / dBBDu072L (antibody, name in Kabat numbering, V domains shown, as m1, one VH change) VH: QVQLVESGGGLVQPGRSLRLSCAASGFTFSNAWMHWVRQAPGKGLEWVAQIKDKGNAYAAYYAPSSKGRFTISRDDSKNSIYLQMNSLKTEDTAVYYCHYVHYASASTVLPAFGVDAWGQGTTVTVSS VL: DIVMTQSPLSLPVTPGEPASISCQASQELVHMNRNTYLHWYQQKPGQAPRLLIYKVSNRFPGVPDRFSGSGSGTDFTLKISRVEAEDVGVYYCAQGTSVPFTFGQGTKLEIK"
endpoint = "fold change of affinity"
observed_measurement = 0.9

[[record]]
binder = "dBBDu183H P61Y / dBBDu072L (antibody, name in Kabat numbering, V domains shown, as m1, one VH change) VH: QVQLVESGGGLVQPGRSLRLSCAASGFTFSNAWMHWVRQAPGKGLEWVAQIKDKGNAYAAYYAYSVKGRFTISRDDSKNSIYLQMNSLKTEDTAVYYCHYVHYASASTVLPAFGVDAWGQGTTVTVSS VL: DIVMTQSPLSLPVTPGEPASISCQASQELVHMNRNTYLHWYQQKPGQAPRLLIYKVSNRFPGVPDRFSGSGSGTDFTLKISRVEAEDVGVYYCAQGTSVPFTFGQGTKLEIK"
endpoint = "fold change of affinity"
observed_measurement = 0.7

[[record]]
binder = "dBBDu183H S62H / dBBDu072L (antibody, name in Kabat numbering, V domains shown, as m1, one VH change) VH: QVQLVESGGGLVQPGRSLRLSCAASGFTFSNAWMHWVRQAPGKGLEWVAQIKDKGNAYAAYYAPHVKGRFTISRDDSKNSIYLQMNSLKTEDTAVYYCHYVHYASASTVLPAFGVDAWGQGTTVTVSS VL: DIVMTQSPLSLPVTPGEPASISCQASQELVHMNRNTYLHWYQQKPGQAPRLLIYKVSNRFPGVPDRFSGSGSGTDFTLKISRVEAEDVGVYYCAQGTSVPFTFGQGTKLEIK"
endpoint = "fold change of affinity"
observed_measurement = 0.9

[[record]]
binder = "dBBDu183H A100G / dBBDu072L (antibody, name in Kabat numbering, V domains shown, as m1, one VH change) VH: QVQLVESGGGLVQPGRSLRLSCAASGFTFSNAWMHWVRQAPGKGLEWVAQIKDKGNAYAAYYAPSVKGRFTISRDDSKNSIYLQMNSLKTEDTAVYYCHYVHYASGSTVLPAFGVDAWGQGTTVTVSS VL: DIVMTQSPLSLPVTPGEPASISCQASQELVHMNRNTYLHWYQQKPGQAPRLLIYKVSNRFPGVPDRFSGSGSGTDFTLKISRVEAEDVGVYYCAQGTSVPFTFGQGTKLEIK"
endpoint = "fold change of affinity"
observed_measurement = 0.7

[[record]]
binder = "dBBDu183H V100cH / dBBDu072L (antibody, name in Kabat numbering, V domains shown, as m1, one VH change) VH: QVQLVESGGGLVQPGRSLRLSCAASGFTFSNAWMHWVRQAPGKGLEWVAQIKDKGNAYAAYYAPSVKGRFTISRDDSKNSIYLQMNSLKTEDTAVYYCHYVHYASASTHLPAFGVDAWGQGTTVTVSS VL: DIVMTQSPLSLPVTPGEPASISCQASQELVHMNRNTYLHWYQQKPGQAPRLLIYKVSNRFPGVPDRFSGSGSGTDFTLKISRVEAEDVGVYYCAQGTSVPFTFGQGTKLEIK"
endpoint = "fold change of affinity"
observed_measurement = 0.5

[[record]]
binder = "dBBDu183H S99K / dBBDu072L (antibody, name in Kabat numbering, V domains shown, as m1, one VH change) VH: QVQLVESGGGLVQPGRSLRLSCAASGFTFSNAWMHWVRQAPGKGLEWVAQIKDKGNAYAAYYAPSVKGRFTISRDDSKNSIYLQMNSLKTEDTAVYYCHYVHYAKASTVLPAFGVDAWGQGTTVTVSS VL: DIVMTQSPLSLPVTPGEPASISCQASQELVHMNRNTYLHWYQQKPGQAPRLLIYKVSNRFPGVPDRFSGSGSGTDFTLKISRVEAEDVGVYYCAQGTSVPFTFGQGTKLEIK"
endpoint = "fold change of affinity"
observed_measurement = 1.2


Quickly give me recorded fold change of affinity for dBBDu183H G65F / dBBDu072L (antibody, name in Kabat numbering, V domains shown, as m1, one VH change) VH: QVQLVESGGGLVQPGRSLRLSCAASGFTFSNAWMHWVRQAPGKGLEWVAQIKDKGNAYAAYYAPSVKFRFTISRDDSKNSIYLQMNSLKTEDTAVYYCHYVHYASASTVLPAFGVDAWGQGTTVTVSS VL: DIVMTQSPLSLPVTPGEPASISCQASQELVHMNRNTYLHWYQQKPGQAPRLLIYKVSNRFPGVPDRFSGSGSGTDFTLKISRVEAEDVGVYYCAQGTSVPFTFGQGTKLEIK
1.3

Indicate its recorded fold change of affinity; the binder in question is dBBDu183H K64G / dBBDu072L (antibody, name in Kabat numbering, V domains shown, as m1, one VH change) VH: QVQLVESGGGLVQPGRSLRLSCAASGFTFSNAWMHWVRQAPGKGLEWVAQIKDKGNAYAAYYAPSVGGRFTISRDDSKNSIYLQMNSLKTEDTAVYYCHYVHYASASTVLPAFGVDAWGQGTTVTVSS VL: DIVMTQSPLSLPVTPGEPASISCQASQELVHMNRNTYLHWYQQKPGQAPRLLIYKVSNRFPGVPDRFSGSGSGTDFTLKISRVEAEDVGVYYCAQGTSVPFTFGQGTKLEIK
1.1
